I'd appreciate it if you could supply cAMP EC50 (nM) Exp. 2 values for the items below.
Target: T1, apelin receptor (AGTRL1) on CHO-K1 cells (UniProt P35414 1-380, limits assumed)
T1 sequence (looked up): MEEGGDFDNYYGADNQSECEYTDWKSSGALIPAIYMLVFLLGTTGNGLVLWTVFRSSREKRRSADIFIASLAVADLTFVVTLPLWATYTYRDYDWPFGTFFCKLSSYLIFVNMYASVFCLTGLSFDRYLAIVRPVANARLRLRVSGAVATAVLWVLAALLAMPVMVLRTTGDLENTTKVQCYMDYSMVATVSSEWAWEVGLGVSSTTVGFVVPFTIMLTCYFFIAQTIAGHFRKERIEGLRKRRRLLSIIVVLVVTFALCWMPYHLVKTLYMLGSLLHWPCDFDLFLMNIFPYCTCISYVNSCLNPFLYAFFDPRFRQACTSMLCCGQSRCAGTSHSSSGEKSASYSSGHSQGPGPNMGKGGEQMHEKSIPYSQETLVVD
Experiment: cell-based or functional assay
Please state the figure in nM; there is no need to write the unit.

Query: Output measured cAMP EC50 (nM) Exp. 2 for this item: ELA-E (Fc fusion) DKTHTSPPSPAPEAAGGPSVFLFPPKPKDTLMISRTPEVTCVVVDVSHEDPEVKFNWYVDGVEVHNAKTKPREEQYNSTYRVVSVLTVLHQDWLNGKEYKCKVSNKALPAPIEKTISKAKGQPREPQVYTLPPSREEMTKNQVNLTCLVKGFYPSDIAVEWESNGQPENNYKTTPPVLDSDGSFFLNSTLTVDKSRWQQGNVFSCSVMHEALHNHYTQKSLSLSPGKGGGGSGGGGSGGGGSKLRKHNCLQRRCMPLHRRVPFP
Result: 2.4

Query: Output measured cAMP EC50 (nM) Exp. 2 for this item: ELA-J (Fc fusion) DKTHTSPPSPAPEAAGGPSVFLFPPKPKDTLMISRTPEVTCVVVDVSHEDPEVKFNWYVDGVEVHNAKTKPREEQYNSTYRVVSVLTVLHQDWLNGKEYKCKVSNKALPAPIEKTISKAKGQPREPQVYTLPPSREEMTKNQVNLTCLVKGFYPSDIAVEWESNGQPENNYKTTPPVLDSDGSFFLNSTLTVDKSRWQQGNVFSCSVMHEALHNHYTQKSLSLSPGKGGGGSGGGGSGGGGSKLRKHNCLQERCMPLHSRVPFP
Result: 133

Query: Output measured cAMP EC50 (nM) Exp. 2 for this item: ELA-K (Fc fusion) DKTHTSPPSPAPEAAGGPSVFLFPPKPKDTLMISRTPEVTCVVVDVSHEDPEVKFNWYVDGVEVHNAKTKPREEQYNSTYRVVSVLTVLHQDWLNGKEYKCKVSNKALPAPIEKTISKAKGQPREPQVYTLPPSREEMTKNQVNLTCLVKGFYPSDIAVEWESNGQPENNYKTTPPVLDSDGSFFLNSTLTVDKSRWQQGNVFSCSVMHEALHNHYTQKSLSLSPGKGGGGSGGGGSGGGGSKLRKHNCLIRRCMPLHSRVPFP
Result: 5.7

Query: Output measured cAMP EC50 (nM) Exp. 2 for this item: ELA-A (Fc fusion) DKTHTSPPSPAPEAAGGPSVFLFPPKPKDTLMISRTPEVTCVVVDVSHEDPEVKFNWYVDGVEVHNAKTKPREEQYNSTYRVVSVLTVLHQDWLNGKEYKCKVSNKALPAPIEKTISKAKGQPREPQVYTLPPSREEMTKNQVNLTCLVKGFYPSDIAVEWESNGQPENNYKTTPPVLDSDGSFFLNSTLTVDKSRWQQGNVFSCSVMHEALHNHYTQKSLSLSPGKGGGGSGGGGSGGGGSKLRKHNCLQRRCMPLHSRVPFP
Result: 1.4

Query: Output measured cAMP EC50 (nM) Exp. 2 for this item: ELA-B (Fc fusion) DKTHTSPPSPAPEAAGGPSVFLFPPKPKDTLMISRTPEVTCVVVDVSHEDPEVKFNWYVDGVEVHNAKTKPREEQYNSTYRVVSVLTVLHQDWLNGKEYKCKVSNKALPAPIEKTISKAKGQPREPQVYTLPPSREEMTKNQVNLTCLVKGFYPSDIAVEWESNGQPENNYKTTPPVLDSDGSFFLNSTLTVDKSRWQQGNVFSCSVMHEALHNHYTQKSLSLSPGKGGGGSGGGGSGGGGSKLNKHNCLQRRCMPLHSRVPFP
Result: 1.5

Query: Output measured cAMP EC50 (nM) Exp. 2 for this item: ELA-I (Fc fusion) DKTHTSPPSPAPEAAGGPSVFLFPPKPKDTLMISRTPEVTCVVVDVSHEDPEVKFNWYVDGVEVHNAKTKPREEQYNSTYRVVSVLTVLHQDWLNGKEYKCKVSNKALPAPIEKTISKAKGQPREPQVYTLPPSREEMTKNQVNLTCLVKGFYPSDIAVEWESNGQPENNYKTTPPVLDSDGSFFLNSTLTVDKSRWQQGNVFSCSVMHEALHNHYTQKSLSLSPGKGGGGSGGGGSGGGGSKLRKHNSLQRRYMPLHSRVPFP
Result: 3.19

src = patent US20240383958A1
